Each entry below carries its recorded Percent Growth.
# System: UACC-62
# Assay info: panel of 60 human tumor cell lines, growth inhibition (Melanoma)
# Condition context: UACC-62; Log10 Concentration −7.0
Just the number please, in %, no unit attached.

In the examples that follow, each entry is paired with its recorded Percent Growth.
{"Compound": "C=C1C(=O)O[C@H]2[C@H]1CC/C(COC(=O)N1CCC(F)(F)CC1)=C\\CC[C@@]1(C)O[C@@H]21 [JVM 2-66]", "Result unit": "%", "Percent Growth": 94}
{"Compound": "C=C1C(=O)O[C@H]2[C@H]1CC/C(COC(=O)NCCc1ccccn1)=C\\CC[C@@]1(C)O[C@@H]21 [JVM 61]", "Result unit": "%", "Percent Growth": 92}
{"Compound": "C=C1C(=O)O[C@H]2[C@H]1CC/C(COC(=O)CCC(=O)N1CCC(C)CC1)=C\\CC[C@@]1(C)O[C@@H]21 [JVM 2-70]", "Result unit": "%", "Percent Growth": 94}

Just so you know, measured Percent Growth for C=C1C(=O)O[C@H]2[C@H]1CC/C(COC(=O)N1CCN(C)CC1)=C\CC[C@@]1(C)O[C@@H]21 [JVM 2-44] came out at 99

C=C1C(=O)O[C@H]2[C@H]1CC/C(COC(=O)NC)=C\CC[C@@]1(C)O[C@@H]21 [JVM 2-57] has a reported Percent Growth of 99

* * *

Let's go through some recorded CC50 values for UO-31 together.
Use µM as the unit, but write only the number.

Example entries and their recorded answers appear below.
{"Molecule": "C=C1C(=O)O[C@H]2[C@H]1CC/C(COC(=O)N1CCC(F)(F)CC1)=C\\CC[C@@]1(C)O[C@@H]21 [JVM 2-66]", "CC50, µM": 22.2}
{"Molecule": "C=C1C(=O)O[C@H]2[C@H]1CC/C(COC(=O)CCC(=O)N1CCC(C)CC1)=C\\CC[C@@]1(C)O[C@@H]21 [JVM 2-70]", "CC50, µM": 46.9}
{"Molecule": "C=C1C(=O)O[C@H]2[C@H]1CC/C(COC(=O)NCCN1CCCCC1)=C\\CC[C@@]1(C)O[C@@H]21 [JVM 2-13]", "CC50, µM": 49.5}
{"Molecule": "C=C1C(=O)O[C@H]2[C@H]1CC/C(COC(=O)N1CCN(C)CC1)=C\\CC[C@@]1(C)O[C@@H]21 [JVM 2-44]", "CC50, µM": 47.6}
{"Molecule": "C=C1C(=O)O[C@H]2[C@H]1CC/C(COC(=O)NC)=C\\CC[C@@]1(C)O[C@@H]21 [JVM 2-57]", "CC50, µM": 36.9}

We now examine a further molecule.
Entry C=C1C(=O)O[C@H]2[C@H]1CC/C(COC(=O)NCCO)=C\CC[C@@]1(C)O[C@@H]21 [JVM 2-50] under UO-31 had CC50 of 77.1

* * *

# Test system: NCI-H322M
compounds and their reported CC50
Your answer should be a plain number; it is taken to be in µM.

{"Compound": "C=C1C(=O)O[C@H]2[C@H]1CC/C(COC(=O)CCC(=O)N1CCC(C)CC1)=C\\CC[C@@]1(C)O[C@@H]21 [JVM 2-70]", "CC50 (µM)": 65.1}

NCI-H322M data for C=C1C(=O)O[C@H]2[C@H]1CC/C(COC(=O)N1CCC(F)(F)CC1)=C\CC[C@@]1(C)O[C@@H]21 [JVM 2-66] ; its CC50: 54.6

Note to self: CC50 of C=C1C(=O)O[C@H]2[C@H]1CC/C(COC(=O)NCCN1CCCCC1)=C\CC[C@@]1(C)O[C@@H]21 [JVM 2-13] with NCI-H322M was 61.1
